# Tested on: SAT (Head and Neck Carcinoma);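 note: after 72 h of two-drug dosing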
# assay comment: Bliss excess, mean over the matrix (fraction); higher = more synergy
Bliss excess for assorted molecules
Enter the number alone.

molecule	Bliss excess
CC(=O)c1c(C)c2cnc(Nc3ccc(N4CCNCC4)cn3)nc2n(C2CCCC2)c1=O [Palbociclib] + CC1(C)CCC(CN2CCN(c3ccc(C(=O)NS(=O)(=O)c4ccc(NCC5CCOCC5)c([N+](=O)[O-])c4)c(Oc4cnc5[nH]ccc5c4)c3)CC2)=C(c2ccc(Cl)cc2)C1 [Venetoclax] (first compound max 10 µM, 7x7, partner max 1 µM)	-0.0489

Requested read-out: Bliss excess. Entry: CN(CCO)CC[C@H](CSc1ccccc1)Nc1ccc(S(=O)(=O)NC(=O)c2ccc(N3CCC([C@@H](O)c4ccccc4-c4ccc(Cl)cc4)CC3)cc2)cc1S(=O)(=O)C(F)(F)F [AZD4320] + CCN(CCO)CCCOc1ccc2c(Nc3cc(CC(=O)Nc4cccc(F)c4)[nH]n3)ncnc2c1 [AZD2811] (first compound max 1 µM, 7x7, partner max 1 µM)
0.0112

Param item: COc1nnc2ccc(N3CCC(c4ccc(OCCN5CCN(C)C(=O)[C@H]5C)cc4)CC3)nn12 [AZD5153] + CCN(CCO)CCCOc1ccc2c(Nc3cc(CC(=O)Nc4cccc(F)c4)[nH]n3)ncnc2c1 [AZD2811] (first compound max 1 µM, 7x7, partner max 1 µM)
-0.0368

Also CC(=O)c1c(C)c2cnc(Nc3ccc(N4CCNCC4)cn3)nc2n(C2CCCC2)c1=O [Palbociclib] + Cc1c2c(nn1C)CSCc1cc(n(C)n1)CSc1cc(c3ccccc3c1)OCCCc1c(C(=O)O)n(C)c3c-2c(Cl)ccc13 [AZD5991] (first compound max 10 µM, 7x7, partner max 1 µM) ?
-0.0367

Subsequent entry: CN(CCO)CC[C@H](CSc1ccccc1)Nc1ccc(S(=O)(=O)NC(=O)c2ccc(N3CCC([C@@H](O)c4ccccc4-c4ccc(Cl)cc4)CC3)cc2)cc1S(=O)(=O)C(F)(F)F [AZD4320] + C1CN(CCC1(C(=O)N[C@@H](CCO)C2=CC=C(C=C2)Cl)N)C3=NC=NC4=C3C=CN4 [Capivasertib] (first compound max 1 µM, 7x7, partner max 3 µM)
-0.0363

Now consider Cc1cc2ncnn2cc1Nc1ncc2c(n1)n(C1CCOCC1)c(=O)n2C [AZD7648] + CCN(CCO)CCCOc1ccc2c(Nc3cc(CC(=O)Nc4cccc(F)c4)[nH]n3)ncnc2c1 [AZD2811] (first compound max 10 µM, 7x7, partner max 1 µM) .
-0.0101

Origin of the recorded values: the supplement of paper PMC11061612
